Tested on: OVCAR-3
Test: NCI tumour cell line growth inhibition, 48 h
The source made the active and inactive calls. No stated cut-off is given here; in the data, active = GI50 up to about 1.1 µM and inactive = higher.
Measure: GI50

// GI50 value for "COc1cc([N+](=O)[O-])ccc1NC1=CC(=O)CCC1" : > 100 µM (inactive)

Just so you know, measured GI50 for CC12C(=O)N(CCN)C(=O)C1C1c3ccccc3C2c2ccccc21 (stereo unspecified) came out at > 100 µM (inactive)

For "Cc1cc2oc(-c3ccccc3)c(C)c(=O)c2c2c1OC(C)(C)S2" the molecule record lists GI50 as > 100 µM (inactive)

Recorded GI50 (molecule "Cn1c(=O)c2c(ncn2Cc2ccc(O)c([N+](=O)[O-])c2)n(C)c1=O" ): > 100 µM (inactive)

Documented GI50 of CC1=NNC(=O)C2CCC(=O)N12 (stereo unspecified) : > 100 µM (inactive)

Memo: "O=[N+]([O-])c1cnc(N(CCO)CCO)s1" , reported GI50: > 100 µM (inactive)
